Source: ChEMBL document CHEMBL1201862

Tested on: SK-MEL-2
Protocol description: NCI tumour cell line growth inhibition, 48 h
Activity calls are given as the source filed them. No stated cut-off is given here; in the data, active = GI50 up to about 1.1 µM and inactive = higher.
I'd appreciate it if you could supply GI50 values for the items below.

If you can, please state the reported GI50 value of O=C(CC1(O)C(=O)Nc2c(Cl)cc(Cl)cc21)c1cccc([N+](=O)[O-])c1 (stereo not drawn) .
34.3 µM (inactive)

If you can, please state the reported GI50 value of O=C(c1ccc(Cl)c(Cl)c1)N(C(=S)OC12CC3CC(CC(C3)C1)C2)c1ccccc1 .
20 µM (inactive)

If you can, please state the reported GI50 value of CCCCCCc1ccc(CCCCCCCC(=O)O)o1 .
> 100 µM (inactive)

If you can, please state the reported GI50 value of COc1ccc(N2C(=O)C3c4[nH]c5cccc(C)c5c4C4CCC(C(C)(C)C)CC4C3C2=O)cc1 (stereo not drawn) .
> 10 µM (inactive)

If you can, please state the reported GI50 value of CC(SC(=S)N(C)C)C(=O)Nc1nnc(-c2ccc(Cl)cc2)o1 (stereo not drawn) .
30.8 µM (inactive)

If you can, please state the reported GI50 value of C=C1C2CC(OC(C)=O)C3(C)C(c4ccoc4)OC(=O)[C@@H](O)[C@]13OC1C[C@H](OC(C)=O)C(C)(C)[C@H](C(O)C(=O)OC)[C@]12C (stereo partly drawn) .
> 100 µM (inactive)

If you can, please state the reported GI50 value of c1ccc2c(c1)CN1CCCC1CN2 (stereo not drawn) .
> 100 µM (inactive)

If you can, please state the reported GI50 value of COc1cc(C2=C(C)[C@@H]3CN(CC=C3c3ccc(Cl)cc3)C2)c(S(=O)(=O)O)cc1OC .
> 100 µM (inactive)

If you can, please state the reported GI50 value of C=C1C(=O)[C@@]23CC[C@@H]4[C@@]5(C)CCC[C@@]4(OC5=O)C2(C)CC[C@]1(OC)C3 (stereo partly drawn) .
1.06 µM (active)

If you can, please state the reported GI50 value of O=C1/C(=C\c2c(-c3ccccc3)[nH]n(-c3ccccc3)c2=O)C(c2ccccc2)=NN1c1ccccc1 .
> 100 µM (inactive)

If you can, please state the reported GI50 value of CC(=O)OCCCCN1C(=O)CSc2ccccc21 .
> 100 µM (inactive)

If you can, please state the reported GI50 value of CC1(C)[C@H]2Cc3cc4nc5ccccn5c4cc3[C@@H]1C2 .
15.5 µM (inactive)

If you can, please state the reported GI50 value of COC(=O)c1nc2n(n1)-c1ccccc1C(=O)N(Cc1ccccc1)C2 .
> 100 µM (inactive)

If you can, please state the reported GI50 value of COC(=O)CC(NC(=O)OCc1ccccc1)C(C(=O)OCc1ccccc1)C1(C)OCCO1 (stereo not drawn) .
20 µM (inactive)

If you can, please state the reported GI50 value of O=C(O)CCC1c2[nH]c3ccccc3c2CCN1Cc1ccccc1 (stereo not drawn) .
> 100 µM (inactive)

If you can, please state the reported GI50 value of CCc1ccc(CCN2CCCCC2)nc1 .
> 100 µM (inactive)

If you can, please state the reported GI50 value of C=C(C)C12OC1[C@@]1(C)C(=CC2=O)CCC(O)[C@@H]1C (stereo partly drawn) .
2.34 µM (inactive)

If you can, please state the reported GI50 value of CCOP(=O)(OCC)C(C#N)Cc1ccco1 (stereo not drawn) .
> 10 µM (inactive)

If you can, please state the reported GI50 value of O=P1(N(CCCl)CCCl)Oc2ccc(Cl)cc2Sc2c(ccc(Cl)c2Cl)O1 (stereo not drawn) .
9.68 µM (inactive)

If you can, please state the reported GI50 value of NC(=S)N1N=C2c3ccccc3CCC[C@H]2[C@@H]1c1ccccc1 .
0.236 µM (active)

If you can, please state the reported GI50 value of Cc1cc2c(cc1C)[n+]([O-])c(NCCCN(C)C)c(C#N)[n+]2[O-] .
> 100 µM (inactive)

If you can, please state the reported GI50 value of Cc1[nH]c2[nH]c(=S)nc(NC(N)=S)c2c1Cc1ccccc1 .
93.1 µM (inactive)

If you can, please state the reported GI50 value of O=[N+]([O-])c1ccc(CSc2nncc3[nH]cnc23)cc1 .
83.6 µM (inactive)

If you can, please state the reported GI50 value of c1ccc2c(c1)nc1n2CNC1 .
> 100 µM (inactive)

If you can, please state the reported GI50 value of S=P1(Sc2ccccc2)Oc2ccc3ccccc3c2-c2c(ccc3ccccc23)O1 .
> 100 µM (inactive)

If you can, please state the reported GI50 value of O=C1OC[C@@H]2Cc3cc4c(cc3[C@H](c3ccc5c(c3)OCO5)[C@@H]12)OCO4 .
> 25 µM (inactive)

If you can, please state the reported GI50 value of CC(C)CCCC(C)[C@H]1CC[C@H]2[C@@H]3CC[C@H]4C[C@@H](CCC=C(c5cc(Cl)c(O)c(C(=O)OC(C)C)c5)c5cc(Cl)c(O)c(C(=O)OC(C)C)c5)CC[C@]4(C)[C@H]3CC[C@]12C (stereo partly drawn) .
> 50 µM (inactive)

If you can, please state the reported GI50 value of O=C(/C=C/c1ccc(-c2ccccc2[N+](=O)[O-])o1)NCc1ccc(C(=O)NCCc2ccccc2)cc1 .
21.2 µM (inactive)

If you can, please state the reported GI50 value of O=C(N/S(=N/S(=O)(=O)c1ccc(Br)cc1)C(Cl)(Cl)Cl)c1ccccc1 (stereo not drawn) .
> 100 µM (inactive)

If you can, please state the reported GI50 value of COc1ccc(C2=C(N)c3ccccc3C2=O)cc1 .
> 100 µM (inactive)

If you can, please state the reported GI50 value of C/C(=C1/N=C(c2cc([N+](=O)[O-])ccc2Cl)N(c2ccc(Br)cc2)C1=O)c1ccc(N(CCC#N)CCC#N)cc1C .
21.8 µM (inactive)

If you can, please state the reported GI50 value of CCOP(=O)(/C=C/n1cc(C)c(=O)[nH]c1=O)OCC .
> 100 µM (inactive)

If you can, please state the reported GI50 value of Cc1cccc(NC(=S)Nc2ccc([N+](=O)[O-])cc2)n1 .
> 100 µM (inactive)

###

I'd appreciate it if you could supply GI50 values for the items below.
System: OVCAR-4
Protocol description: NCI tumour cell line growth inhibition, 48 h
The source made the active and inactive calls. No stated cut-off is given here; in the data, active = GI50 up to about 1.1 µM and inactive = higher.

Write down the reported GI50 of c1ccc2c(c1)CN1CCCC1CN2 (stereo unspecified) , test system: OVCAR-4.
> 100 µM (inactive)

Write down the reported GI50 of COP(=O)(OC)C(NC=O)P(=O)(OC)OC , test system: OVCAR-4.
> 100 µM (inactive)

Write down the reported GI50 of CCCCCC(O)(CCCCC)CCCCCCCCC1=C(O)C(=O)c2ccc(=O)[nH]c2C1=O , test system: OVCAR-4.
1.87 µM (inactive)

Write down the reported GI50 of CON(C(=O)OC(C)(C)C)c1ccccc1 , test system: OVCAR-4.
> 100 µM (inactive)

Write down the reported GI50 of N#Cc1nc(COCCOCc2ccccc2)oc1N , test system: OVCAR-4.
> 100 µM (inactive)

Write down the reported GI50 of O=C1c2cc(Cl)ccc2N=C(NC2CCCC2)C2CSCN12 (stereo unspecified) , test system: OVCAR-4.
> 100 µM (inactive)

###

I'd appreciate it if you could supply GI50 values for the items below.
System: COLO 205
Protocol description: NCI tumour cell line growth inhibition, 48 h
Calls of active or inactive are those of the source. No stated cut-off is given here; in the data, active = GI50 up to about 1.1 µM and inactive = higher.

If you can, please state the reported GI50 value of CCOP(=O)(OCC)C(C#N)Cc1ccco1 (stereo not drawn) .
> 10 µM (inactive)

If you can, please state the reported GI50 value of COC(=O)C1=COC(OC2OC(CO)C(O)C(O)C2O)C2C3CN4CCc5c([nH]c6ccccc56)C4(CC12)O3 (stereo not drawn) .
> 100 µM (inactive)

If you can, please state the reported GI50 value of O=C(/C=C/c1ccc(-c2ccccc2[N+](=O)[O-])o1)NCc1ccc(C(=O)NCCc2ccccc2)cc1 .
> 100 µM (inactive)

If you can, please state the reported GI50 value of Cc1cc2nc(N3C(=O)/C(=C/c4ccc(Cl)cc4)N=C3c3ccccc3)sc2cc1C .
16.1 µM (inactive)

If you can, please state the reported GI50 value of Nc1ncnc2c1cnn2COCC(O)CO (stereo not drawn) .
> 100 µM (inactive)

If you can, please state the reported GI50 value of CN(C)/C=[N+]1/[C@@H](Cc2ccccc2)C(=O)O[B-]1(F)c1ccccc1 (stereo partly drawn) .
> 100 µM (inactive)

If you can, please state the reported GI50 value of S=C(Nc1ccccc1)Nc1[nH]c(=S)sc1-c1nc2ccccc2[nH]1 .
> 100 µM (inactive)

If you can, please state the reported GI50 value of CCOP(=O)(OCC)/C(C#N)=C/c1cn(C)cn1 .
> 100 µM (inactive)
